# System: 317291-083-R-J1-PDC complex spheroid growth;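 also: compound exposure lasted seven days after spheroids formed for three days; 100% = DMSO vehicle control wells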
# RUN DESCRIPTION: Anticancer human tumor 317291-083-R-J1-PDC patient-derived soft tissue sarcoma cell line growth inhibition [Asc]
# TEST CONDITIONS: second compound 0.0316 µM; first compound 10 µM; hits give low values
Hi there, I'd appreciate the recorded viability, T/C for every entry that follows.
Answer in %, number only, no unit symbol.

Input: For the compound O=C(c1cc(Cc2n[nH]c(=O)c3ccccc23)ccc1F)N1CCN(C(=O)C2CC2)CC1 + CNC(C)C(=O)NC1CN(S(=O)(=O)c2cccc(S(=O)(=O)N3CCC4CCC(C(=O)NC(c5ccccc5)c5ccccc5)N4C(=O)C(NC(=O)C(C)NC)C3)c2)CCC2CCC(C(=O)NC(c3ccccc3)c3ccccc3)N2C1=O , what viability, T/C is on record?
Output: 23.9

Input: Would you mind doing C#Cc1c(F)ccc2cc(O)cc(-c3ncc4c(N5CC6CCC(C5)N6)nc(OCC56CCCN5CC(F)C6)nc4c3F)c12 (stereo not drawn) + Cc1c(S(C)(=O)=O)c(-c2cc(F)cc(N3CCN(c4ccc(NS(=O)(=O)c5ccc(NC(CCN6CCC(C(=O)OCCCP(=O)(O)O)CC6)CSc6ccccc6)c(S(=O)(=O)C(F)(F)F)c5)cc4)CC3)c2)c(-c2ccc(Cl)cc2)n1C(C)C as well?
Output: 68.8

Input: How about this compound: C=CC(=O)N1CCN(c2nc(=O)n(-c3c(C)ccnc3C(C)C)c3nc(-c4c(O)cccc4F)c(F)cc23)C(C)C1 (stereo not drawn) + CNC(C)C(=O)NC1CN(S(=O)(=O)c2cccc(S(=O)(=O)N3CCC4CCC(C(=O)NC(c5ccccc5)c5ccccc5)N4C(=O)C(NC(=O)C(C)NC)C3)c2)CCC2CCC(C(=O)NC(c3ccccc3)c3ccccc3)N2C1=O
Output: 28.8
